These measurements were taken from PubChem BioAssay (NCI).

# Test system: MDA-MB-435
# METHOD: NCI tumour cell line growth inhibition, 48 h
Below: a set of entries, each annotated with reported TGI.

>  <MOLECULE>
Cc1ccccc1N=Nc1ccc(NC(=O)c2ccnn2C)c(C)c1

>  <TGI>
> 100 µM

$$$$
>  <MOLECULE>
CCCc1cc2c(=O)c(C(=O)OC)c[nH]c2cc1N(CC)CC

>  <TGI>
> 100 µM

$$$$
>  <MOLECULE>
CCCCc1c2c(nc3c1CCCC3O)CCCC2 (stereo not given)

>  <TGI>
> 100 µM

$$$$
>  <MOLECULE>
COc1cc(C)c2c(=O)c3ccccc3n(C)c2c1

>  <TGI>
> 100 µM

$$$$
>  <MOLECULE>
CC(C)CC1C(=O)NCCC(NC(=O)C(N)Cc2ccc(O)cc2)C(=O)NC(Cc2ccccc2)C(=O)NC(Cc2ccccc2)NC1=O (stereo not given)

>  <TGI>
> 100 µM

$$$$
>  <MOLECULE>
CCc1c(C#N)c(S[C@@H](C(N)=O)c2ccccc2)nc(N(C)C)c1C#N

>  <TGI>
> 100 µM

$$$$
>  <MOLECULE>
Fc1ccc2c(c1)c(-c1nc(-c3c[nH]c4ncccc34)cs1)cn2CCCN1CCCCC1

>  <TGI>
3.17 µM

$$$$
>  <MOLECULE>
C=C(C)C1Cc2c(cc(O)c3c(=O)c4c(oc23)C(O)Oc2cc(OC)c(OC)cc2-4)O1 (stereo not given)

>  <TGI>
> 10 µM

$$$$
>  <MOLECULE>
CC(OC(C)(C)C)[C@H](NC(=O)OC(C)(C)C)C(=O)O (stereo not given in full)

>  <TGI>
> 100 µM

$$$$
>  <MOLECULE>
Cc1sc2nc(-c3ccc(Cl)c([N+](=O)[O-])c3)c(/C=N/N=C(N)N)n2c1C

>  <TGI>
3.11 µM

$$$$
>  <MOLECULE>
COc1c(OC)c(OC)c2c(c1OC)c(=O)c1ccccc1n2C

>  <TGI>
> 100 µM

$$$$
>  <MOLECULE>
Cn1c(/C=C(\C#N)c2ccccc2)nc2c(N3CCOCC3)nc(Cl)nc21

>  <TGI>
2.78 µM

$$$$
>  <MOLECULE>
Cc1ccc(C)n1-n1c(Cc2ccccc2)n[nH]c1=O

>  <TGI>
> 100 µM

$$$$
>  <MOLECULE>
CC(=O)[C@@]1(O)CC[C@H]2[C@@H]3C[C@H](C)C4=CC(=O)CC[C@]4(C)[C@H]3[C@@H](O)C[C@@]21C

>  <TGI>
> 100 µM

$$$$
>  <MOLECULE>
Nc1nc(N)c(C2=CCNCC2)c(=O)[nH]1

>  <TGI>
> 100 µM

$$$$
>  <MOLECULE>
c1cc(Sc2nc(Sc3ccncc3)nc(Sc3ccncc3)n2)ccn1

>  <TGI>
> 100 µM

$$$$
>  <MOLECULE>
O=C1c2ccccc2C(=O)[C@@]23O[C@@]12C1(Oc2cccc4cccc(c24)O1)[C@@H]1O[C@@H]1[C@@H]3O

>  <TGI>
> 59.6 µM

$$$$
>  <MOLECULE>
Cc1nc(Nc2ccccc2Cl)sc1C(=O)CC(=O)C(=O)Nc1c(Cl)cccc1Cl

>  <TGI>
50 µM

$$$$
>  <MOLECULE>
Oc1ccccc1/C=N/Nc1nc(N/N=C/c2ccccc2O)nc(N/N=C/c2ccccc2O)n1

>  <TGI>
> 100 µM

$$$$
>  <MOLECULE>
COc1cc2c3c(n(CCCN)c(=O)c2cc1OC)-c1cc2c(cc1/C3=C\CCN)OCO2

>  <TGI>
> 36 µM

$$$$

* * *

# System: SK-MEL-5 melanoma
# METHOD: NCI tumour cell line growth inhibition, 48 h
OBSERVED_PROPERTY: TGI (µM)

>  <MOLECULE>
CC(OC(C)(C)C)[C@H](NC(=O)OC(C)(C)C)C(=O)O (some centres undefined)

>  <COMPARATIVE_SIGN>
>

>  <RESULT_VALUE>
100

$$$$
>  <MOLECULE>
OC1(c2ccccc2)CC2CCC(C1)N2CCCC1(c2ccc(F)cc2)OCCO1 (centres undefined)

>  <COMPARATIVE_SIGN>
=

>  <RESULT_VALUE>
44.3

$$$$
>  <MOLECULE>
COC1CC2CCC(C)C(O)(O2)C(=O)C(=O)N2CCCCC2C(=O)OC(C(C)CC2CCC(O)C(OC)C2)CC(=O)C(C)C=C(C)C(O)C(OC)C(=O)C(C)CC(C)/C=C/C=C/C=C1C (centres undefined)

>  <COMPARATIVE_SIGN>
=

>  <RESULT_VALUE>
9.24

$$$$
>  <MOLECULE>
O=C1CCC(=O)N1Cc1ccccc1N=[N+]([O-])c1ccccc1CN1C(=O)CCC1=O

>  <COMPARATIVE_SIGN>
>

>  <RESULT_VALUE>
100

$$$$

* * *

# Test system: DMS 114 small cell lung
# METHOD: NCI tumour cell line growth inhibition, 48 h
OBSERVED_PROPERTY: TGI

>  <MOLECULE>
C#CCOc1c(C(=O)OCC)c(=O)n(C)c2ccccc12

>  <RESULT_VALUE>
> 100 µM

$$$$
>  <MOLECULE>
COC(=O)C(=O)OC1(C(C)=O)CC2(c3ccccc3)OC1(c1ccccc1)c1ccccc12 (stereo not drawn)

>  <RESULT_VALUE>
32 µM

$$$$
>  <MOLECULE>
Nc1ncnc2c1nc(Cl)n2C1OC2COP(=O)(O)OC2C1O (stereo not drawn)

>  <RESULT_VALUE>
> 300 µM

$$$$
>  <MOLECULE>
Oc1ccccc1C=NCc1ccco1

>  <RESULT_VALUE>
> 100 µM

$$$$
>  <MOLECULE>
O=C(CO)CC(=O)C(=O)Nc1ccccc1

>  <RESULT_VALUE>
> 100 µM

$$$$
>  <MOLECULE>
CC(=O)OC(C)C1C2=C(C(=O)CC1(C)O)C(=O)c1c(ccc(-c3ccc4c(c3O)C(=O)C3=C(C4=O)C(C(C)OC(C)=O)C(C)(O)CC3=O)c1O)C2=O (stereo not drawn)

>  <RESULT_VALUE>
1.24 µM

$$$$
>  <MOLECULE>
NC(=O)C(N)=O

>  <RESULT_VALUE>
> 100 µM

$$$$
>  <MOLECULE>
N#Cc1c(NN)nc(NN)c(C#N)c1-c1ccccc1

>  <RESULT_VALUE>
> 100 µM

$$$$
>  <MOLECULE>
Nc1ccc2nc(Nc3ccc(F)cc3)cnc2c1

>  <RESULT_VALUE>
> 100 µM

$$$$
>  <MOLECULE>
CC1(c2cccc3ccccc23)OC(=O)c2ccccc21 (stereo not drawn)

>  <RESULT_VALUE>
38 µM

$$$$
>  <MOLECULE>
O=C1NC(=O)C2C(=O)NC(=O)C1C2(c1ccccc1)c1cc[nH]c1 (stereo not drawn)

>  <RESULT_VALUE>
> 100 µM

$$$$
>  <MOLECULE>
N#C/C(=C/c1ccc[nH]1)P(=O)(O)O

>  <RESULT_VALUE>
> 100 µM

$$$$
>  <MOLECULE>
Cn1c(=O)nc2n(-c3cccc(Br)c3)c3ccccc3nc-2c1=O

>  <RESULT_VALUE>
4.45 µM

$$$$
>  <MOLECULE>
CSc1nc(Cl)c(Br)c(Sc2nc(N)nc3nc[nH]c23)n1

>  <RESULT_VALUE>
18.9 µM

$$$$
>  <MOLECULE>
CCOC(=O)N1CCc2cc(OC)c(OC)c3c2c1cc1cc(OC)c(OC)cc13

>  <RESULT_VALUE>
7.1 µM

$$$$
>  <MOLECULE>
CCC1(c2c(F)c(F)c(N)c(F)c2F)CCC(=O)NC1=O (stereo not drawn)

>  <RESULT_VALUE>
> 100 µM

$$$$
>  <MOLECULE>
CCN=C(NNc1ccc([N+](=O)[O-])cc1)P(=O)(OC(C)C)OC(C)C

>  <RESULT_VALUE>
> 100 µM

$$$$
>  <MOLECULE>
CCOc1ccccc1NC(=O)CC1SC(=Nc2ccc([N+](=O)[O-])cc2)NC1=O (stereo not drawn)

>  <RESULT_VALUE>
32 µM

$$$$

* * *

Below: a set of entries, each annotated with reported TGI.
# Tested on: SW-620 colon
# METHOD: NCI tumour cell line growth inhibition, 48 h

>  <COMPOUND>
CC(C)(C)c1cc(-c2cc(C(C)(C)C)n(-c3ccccc3)n2)nn1-c1ccccc1

>  <TGI>
> 100 µM

$$$$
>  <COMPOUND>
FC(F)(Sc1ccccn1)c1nc2ccccc2o1

>  <TGI>
> 100 µM

$$$$
>  <COMPOUND>
Cc1c(-c2c(-c3ccc(F)o3)sc3ncnc(O[C@H](Cc4ccccc4OCc4ccnn4CC(F)(F)F)C(=O)O)c23)ccc(OCCN2CCN(C)CC2)c1Cl

>  <TGI>
17.2 µM

$$$$
>  <COMPOUND>
COc1ccc(/C=C/C(=O)/C=C/c2ccc(OC)cc2)cc1

>  <TGI>
52.5 µM

$$$$
>  <COMPOUND>
CC(C)c1ccc(C2C3=C(N=C4SCC(=O)N42)C(=O)c2ccccc23)cc1 (stereo not given)

>  <TGI>
> 100 µM

$$$$
>  <COMPOUND>
COc1cc(CNc2ccc3nc4n(c(=O)c3c2)CCCCC4)cc(OC)c1OC

>  <TGI>
> 100 µM

$$$$
>  <COMPOUND>
N#Cc1c(O)c(N=Nc2ccccc2F)c(=O)n2c1[nH]c1ccccc12

>  <TGI>
> 100 µM

$$$$
>  <COMPOUND>
O=C1c2ccccc2NC(=O)C2C1C(c1ccccc1)CC2(O)c1ccccc1 (stereo not given)

>  <TGI>
> 100 µM

$$$$
>  <COMPOUND>
Cc1ccc(NN=NCCCCN)cc1

>  <TGI>
> 100 µM

$$$$
>  <COMPOUND>
COC(=O)C1(c2cc3ccccc3n2S(=O)(=O)c2ccccc2)CC2C=CC1NC2 (stereo not given)

>  <TGI>
> 21.7 µM

$$$$
>  <COMPOUND>
C#CCOc1c(C(=O)OCC)c(=O)n(C)c2ccccc12

>  <TGI>
> 100 µM

$$$$
>  <COMPOUND>
O=NNc1ccc(S(=O)(=O)c2ccccc2)cn1

>  <TGI>
> 100 µM

$$$$
>  <COMPOUND>
N=C(c1ccc2ccccc2c1)c1ccccc1Cc1ccccc1

>  <TGI>
> 100 µM

$$$$
>  <COMPOUND>
CC(=O)OC(C)C1C2=C(C(=O)CC1(C)O)C(=O)c1c(ccc(-c3ccc4c(c3O)C(=O)C3=C(C4=O)C(C(C)OC(C)=O)C(C)(O)CC3=O)c1O)C2=O (stereo not given)

>  <TGI>
2.1 µM

$$$$
>  <COMPOUND>
Nc1nc(N)c(C2=CCNCC2)c(=O)[nH]1

>  <TGI>
> 100 µM

$$$$
>  <COMPOUND>
COc1ccc(/C=C/C(=O)c2ccc(SC)cc2)cc1OC

>  <TGI>
> 100 µM

$$$$
>  <COMPOUND>
CC(C)(C)c1cc(C(C)(C)C)c(SS(=O)(=O)O)c(O)c1O

>  <TGI>
> 100 µM

$$$$
>  <COMPOUND>
CC(=O)O[C@H]1C(=O)[C@@]2(C)[C@H]([C@H](OC(=O)c3cccc(C(F)(F)F)c3)[C@]3(O)C[C@H](OC(=O)[C@H](O)[C@@H](NC(=O)c4ccccc4)c4ccccc4)C(C)=C1C3(C)C)[C@]1(OC(C)=O)CO[C@@H]1C[C@@H]2O

>  <TGI>
> 16.4 µM

$$$$
>  <COMPOUND>
O=C(CC1(O)C(=O)Nc2c(Cl)ccc(Cl)c21)c1ccc2ccccc2c1 (stereo not given)

>  <TGI>
12.5 µM

$$$$
>  <COMPOUND>
CC(C)(C)OC(=O)c1cnc(Cl)cn1

>  <TGI>
> 100 µM

$$$$
